Tested on: Mycobacterium tuberculosis
PROCEDURE TEXT: Antituberculosis activity against Mycobacterium tuberculosis H37Rv assessed as inhibition of bacterial growth after 45 days
Type: functional
Structures can show the parent of a compound that is named as a salt.
PROPERTY LABEL: MIC (µM)
Quick note: give the figure in µM, leave out the unit.

Example cases with answers are listed next.
CC[C@@H](CO)NCCN[C@@H](CC)CO [ETHAMBUTOL HYDROCHLORIDE]
7.22
COC(=O)[C@H](Cc1cc2ccccc2[nH]1)NC(=O)Cn1cnc2c1c(=O)n(C)c(=O)n2C
0.46
Cn1c(=O)c2c(ncn2CC(=O)N[C@@H](Cc2cc3ccccc3[nH]2)C(=O)O)n(C)c1=O
0.47

We now examine a further molecule.
Reported MIC for C[C@H](NC(=O)Cn1cnc2c1c(=O)n(C)c(=O)n2C)C(=O)O : what is it?
0.65

Data provenance: ChEMBL document CHEMBL3297704
